Tested on: Staphylococcus aureus
Protocol text: Antibacterial activity against hospital-associated methicillin-resistant Staphylococcus aureus isolate 152 by broth microdilution assay
Assay type: functional
Each item that follows carries a reported MIC.

- Molecular string: "O=C(O)c1cn(C2CC2)c2cc(N3CCNCC3)c(F)cc2c1=O"
  Uom: "µg/mL"
  MIC: 0.5
- Molecular string: "CN(C)c1cc(NC(=O)CNC(C)(C)C)c(O)c2c1C[C@H]1C[C@H]3[C@H](N(C)C)C(O)=C(C(N)=O)C(=O)[C@@]3(O)C(O)=C1C2=O"
  Uom: "µg/mL"
  MIC: 0.25
- Molecular string: "CCC[C@@H]1C[C@@H](C(=O)N[C@@H]([C@H]2O[C@H](SC)[C@H](O)[C@@H](O)[C@H]2O)[C@H](C)Cl)N(C)C1"
  Uom: "µg/mL"
  MIC: 0.125
- Molecular string: "CCCCCCCCCC(=O)N[C@@H](Cc1c[nH]c2ccccc12)C(=O)N[C@H](CC(N)=O)C(=O)N[C@@H](CC(=O)O)C(=O)N[C@@H]1C(=O)NCC(=O)N[C@@H](CCCN)C(=O)N[C@@H](CC(=O)O)C(=O)N[C@H](C)C(=O)N[C@@H](CC(=O)O)C(=O)NCC(=O)N[C@H](CO)C(=O)N[C@@H]([C@H](C)CC(=O)O)C(=O)N[C@@H](CC(=O)c2ccccc2N)C(=O)O[C@@H]1C"
  Uom: "µg/mL"
  MIC: 0.5
- Molecular string: "CCCCCCCCCCNCCN[C@@]1(C)C[C@H](O[C@H]2[C@H](Oc3c4cc5cc3Oc3ccc(cc3Cl)[C@@H](O)[C@@H](NC(=O)[C@@H](CC(C)C)NC)C(=O)N[C@@H](CC(N)=O)C(=O)N[C@H]5C(=O)N[C@H]3C(=O)N[C@H](C(=O)N[C@H](C(=O)O)c5cc(O)c(CNCP(=O)(O)O)c(O)c5-c5cc3ccc5O)[C@H](O)c3ccc(c(Cl)c3)O4)O[C@H](CO)[C@@H](O)[C@@H]2O)O[C@@H](C)[C@H]1O"
  Uom: "µg/mL"
  MIC: 0.25
